Quick reference: bioavailability of the listed items.
Assay notes: Oral bioavailability in C57BL/6 mouse at 2 mg/kg
Type: ADME, organism-based
Recorded conditions: in vivo

[
  {
    "Molecule": "Cn1nccc1C1Cc2[nH]nc(C(=O)O)c2C1 (configuration not stated)",
    "U": "%",
    "bioavailability": 27
  },
  {
    "Molecule": "O=C(O)c1n[nH]c2c1CC(c1cc(F)cc(F)c1F)C2 (configuration not stated)",
    "U": "%",
    "bioavailability": 53
  }
]

###

Assay notes: Half life in C57BL/6 mouse at 2 mg/kg, po and 1 mg/kg, iv
Format: ADME, organism-based
Recorded conditions: in vivo

[
  {
    "Compound": "Cn1nccc1C1Cc2[nH]nc(C(=O)O)c2C1 (stereo unspecified)",
    "half-life [h]": 2.3
  }
]
